- System: UACC-257
- run_description: NCI tumour cell line growth inhibition, 48 h
Active and inactive are the calls of the source. No stated cut-off is given here; in the data, active = GI50 up to about 1.1 µM and inactive = higher.
Log the outcome using a class from active, inactive

[[record]]
molecule = "COC(=O)/C([Se]c1c(C)cc(C)cc1C)=C(/[Se]c1c(C)cc(C)cc1C)C(=O)OC"
group = "inactive"

[[record]]
molecule = "CC(O)/C=C/C(CCC(C)CO)C(C)C (centres undefined)"
group = "inactive"

[[record]]
molecule = "CC(=O)OCCOCNC(=S)N/N=C/c1cc([N+](=O)[O-])ccc1O"
group = "inactive"

[[record]]
molecule = "O=S(=O)(NC1OCCCC1I)c1ccccc1 (centres undefined)"
group = "inactive"

[[record]]
molecule = "COC(=O)[C@H]1C=NN[C@@H]1C(=O)N1[C@H]2CC3CC[C@@]2(CS1(=O)=O)C3(C)C"
group = "inactive"


# outcome recorded in this test, key = C=C1CC(OC)(C(O)C(=O)N[C@H]2OCO[C@H]3C2O[C@H](C[C@H](O)COC)C(C)(C)C3OC)O[C@H](C)[C@@H]1C (some centres undefined)
active

# outcome recorded in this test, key = O=C(CCc1nnc(S)[nH]1)Nc1cccc(C(F)(F)F)c1
inactive

# outcome recorded in this test, key = O=S(=O)(Nc1nc2ccccc2nc1Nc1ccc2ccccc2c1)c1ccccc1
inactive

# outcome recorded in this test, key = Oc1c(CN2CCOCC2)ccc(CN2CCOCC2)c1O
inactive
